As shown below, each of these compounds has a reported TGI value.
# System: SW-620 colon
# method.description: NCI tumour cell line growth inhibition, 48 h

Example compounds with recorded TGI:
- compound: "CC(=O)OCC1OC(n2cc(F)c(=O)[nH]c2=O)C(N)C(OC(C)=O)C1OC(C)=O (configuration not stated)"
  parameter.measured: "TGI"
  result: "> 100 µM"
- compound: "CCOC(=O)C(=Cc1ccccc1[N+](=O)[O-])C(=O)OCC"
  parameter.measured: "TGI"
  result: "4.85 µM"
- compound: "Cc1ccc(N=Nc2c(O)ccc3cc(S(=O)(=O)O)ccc23)c(C)c1"
  parameter.measured: "TGI"
  result: "> 100 µM"

QUERY: Request - read-out TGI | tested on SW-620 colon | compound C=CC1ON(Cc2ccccc2)CCc2cc(OC)c(OC)cc21 (configuration not stated)
RESULT: > 100 µM

QUERY: Request - read-out TGI | tested on SW-620 colon | compound "COc1ccc2c(c1OC)C1=C(C2=O)c2cc3c(cc2CCN1)OCO3"
RESULT: 47.5 µM

QUERY: Request - read-out TGI | tested on SW-620 colon | compound COC(=O)C(CCc1ccccc1I)C1=CCC2(CC1)OCCO2 (configuration not stated)
RESULT: > 100 µM

QUERY: Request - read-out TGI | tested on SW-620 colon | compound "Clc1nc(Cl)c(Cl)c(Cl)n1"
RESULT: 20.1 µM

QUERY: Request - read-out TGI | tested on SW-620 colon | compound c1ccc(C2=Nc3nc4ccccc4n3C(c3ccccc3)C2)cc1 (configuration not stated)
RESULT: > 100 µM

QUERY: Request - read-out TGI | tested on SW-620 colon | compound "C(=N\OCc1ccccc1)/c1ncccc1C1OCCO1"
RESULT: > 100 µM

QUERY: Request - read-out TGI | tested on SW-620 colon | compound O=C1/C(=C\c2cccc(Oc3ccccc3)c2)S(=O)(=O)C(c2ccccc2)N1c1ccccc1Cl (configuration not stated)
RESULT: > 100 µM

QUERY: Request - read-out TGI | tested on SW-620 colon | compound "CN(C)C(N)=NC#N"
RESULT: 38.2 µM

QUERY: Request - read-out TGI | tested on SW-620 colon | compound "O=C(Nc1cccc(C(F)(F)F)c1)O/N=C(/Cl)CCl"
RESULT: > 100 µM

* * *

# Test system: SK-OV-3 ovarian
# method.description: NCI tumour cell line growth inhibition, 48 h
parameter.measured: TGI (µM)
The reply should contain only the number, in µM.

Example molecules with recorded TGI:
- given.smiles: "N#Cc1cnc2cc(OC[C@@H](O)CO)c(NC(=O)CC3CSSC3)cc2c1Nc1ccc(OCc2cccc(F)c2)c(Cl)c1"
  display.unit: "µM"
  TGI: 1.27
- given.smiles: "CC(=O)[C@@H]1CCC=C2CC[C@]3(C)[C@@H](CC[C@@H]4[C@@]5(C)CCCNC(C)(C)[C@@H]5CC[C@]43C)[C@H]21"
  display.unit: "µM"
  TGI: 3.37
- given.smiles: "CC(C)(C)NCc1cc(C(C)(C)C)cc(-c2ccc(Cl)cc2)c1O"
  display.unit: "µM"
  TGI: 31.5

QUERY: Bench note: what TGI did "Cc1c(C(=O)N2CCN(c3ccc([N+](=O)[O-])cc3)CC2)[n+](=O)c2cc(Cl)c(Cl)cc2n1[O-]" show?
RESULT: 29.5

* * *

# Tested on: SNB-75 CNS
# method.description: NCI tumour cell line growth inhibition, 48 h
parameter.measured: TGI (µM)
The reply should contain only the number, in µM.

- molecule: "COCCOC(=O)NC(=O)Nc1ccc(/C(=N/O)c2ccc(Cl)cc2)cc1"
  quantitative.readout: 7.94
- molecule: "O=C(O)CCCCCOc1cccnc1/C=N/NC1=NCCN1"
  quantitative.readout: 91.2
- molecule: "ClC(Cl)(Cl)C1=N[C@H]2[C@H](Br)[C@@H]3O[C@@H](c4ccccc4)[C@H](c4ccccc4)O[C@@H]3[C@H]2O1"
  quantitative.readout: 44
- molecule: "C=C1C(=O)OC2CC1C(O)C/C(C)=C/CC/C(C)=C/C(O)CC2C (stereo not given)"
  quantitative.readout: 16.3

QUERY: Bench note: what TGI did "NC1CCN(c2nc(Nc3cccc(C(F)(F)F)c3)c3c(=O)[nH]ccc3n2)CC1" show?
RESULT: 3.19

QUERY: Bench note: what TGI did "O=C1Sc2ccc(Br)cc2C(=O)Sc2ccccc21" show?
RESULT: 26.1

QUERY: Bench note: what TGI did "N#Cc1cnc2cc(OC[C@@H](O)CO)c(NC(=O)CC3CSSC3)cc2c1Nc1ccc(OCc2cccc(F)c2)c(Cl)c1" show?
RESULT: 1.58

* * *

# Tested on: COLO 205 colon
# method.description: NCI tumour cell line growth inhibition, 48 h
parameter.measured: TGI (µM)
The reply should contain only the number, in µM.

Example compounds with recorded TGI:
- compound: "Cc1c2c(cc3c1[nH]c1ccccc13)C=NCC2"
  TGI [µM]: 22.4
- compound: "OCC1OC(n2ccc3c(NO)ncnc32)C(O)C1O (stereo unspecified)"
  TGI [µM]: 0.617
- compound: "CN1c2ccccc2N(C)C2C1N(C)c1ccccc1N2C (stereo unspecified)"
  TGI [µM]: 29.4
- compound: "O=c1nc(Nc2cccc(Cl)c2)oc2cc(Cl)oc(=O)c12"
  TGI [µM]: 23.7
- compound: "CCN1C(=S)N(CC)C2C1NC(=S)N2/N=C/C=C/c1ccccc1 (stereo unspecified)"
  TGI [µM]: 4.4
- compound: "Clc1cc2c(c(CSC3=NCN(CC4CC4)CN3)c1)OCOC2"
  TGI [µM]: 28.4

QUERY: Bench note: what TGI did "CC1=C[C@H]2c3c(c(O)c(O)c4oc5ccccc5c(=O)c34)[C@H](c3cc(O)c(O)c4oc5ccccc5c(=O)c34)[C@H]2C(C)(C)C1" show?
RESULT: 9.73

* * *

As shown below, each of these compounds has a reported TGI value.
# Test system: A549 NSCLC
# method.description: NCI tumour cell line growth inhibition, 48 h

QUERY: Request - read-out TGI | tested on A549 NSCLC | compound Cn1c(C(C#N)c2nc(Cl)ncc2Br)nc2ccccc21 (stereo unspecified)
RESULT: > 100 µM

* * *

# Tested on: HOP-92 NSCLC
# method.description: NCI tumour cell line growth inhibition, 48 h
parameter.measured: TGI (µM)
The reply should contain only the number, in µM.

Example compounds with recorded TGI:
- given.smiles: "CN1CCCN(C)C1c1cc([N+](=O)[O-])ccc1O"
  parameter.measured: "TGI"
  display.unit: "µM"
  quantitative.readout: 76.6
- given.smiles: "COc1cc2c3c(n(CCCNCCN)c(=O)c2cc1OC)-c1cc2c(cc1C3=O)OCO2"
  parameter.measured: "TGI"
  display.unit: "µM"
  quantitative.readout: 15.6
- given.smiles: "O=C1Sc2ccc(Br)cc2C(=O)Sc2ccccc21"
  parameter.measured: "TGI"
  display.unit: "µM"
  quantitative.readout: 33.6
- given.smiles: "O=c1nc(Nc2cccc(Cl)c2)oc2cc(Cl)oc(=O)c12"
  parameter.measured: "TGI"
  display.unit: "µM"
  quantitative.readout: 19.5

Note: attention shifts to another entry.
QUERY: Bench note: what TGI did "COc1ccc(/C=C/c2nc(NCCCN(C)C)c3ccccc3n2)cc1" show?
RESULT: 8.15

* * *

# Tested on: HCC-2998 colon
# method.description: NCI tumour cell line growth inhibition, 48 h
As shown below, each of these compounds has a reported TGI value.

- compound: "COc1ccccc1-c1cc(=O)c2ccccc2[nH]1"
  TGI: "> 100 µM"
- compound: "CN1c2ccccc2N(C)C2C1N(C)c1ccccc1N2C (centres undefined)"
  TGI: "30.9 µM"
- compound: "O=c1cc2ccccc2nn1Cc1ccccc1Cl"
  TGI: "> 100 µM"

QUERY: Bench note: what TGI did "COc1cc(OC)c2c(O)c3c(cc2c1)CC(C)(C)CC3=O" show?
RESULT: > 100 µM

* * *

# System: UACC-257 melanoma
Permitted responses: YES (active), NO (inactive)

- molecule: "CC1(C)OC(=O)C=C([O-])O1.CC1(C)OC(=O)C=C([O-])O1.O=S(=O)([O-])c1ccc([O-])c2ncccc12.O=S(=O)([O-])c1ccc([O-])c2ncccc12.[Ti+4]"
  classification: "NO"
- molecule: "CC/C=C\\C[C@H](O)C/C=C1/C(=O)C=C[C@@H]1C/C=C\\CCCC(=O)N(C)C"
  classification: "NO"
- molecule: "CC1=C[C@H]2c3c(c(O)c(O)c4oc5ccccc5c(=O)c34)[C@H](c3cc(O)c(O)c4oc5ccccc5c(=O)c34)[C@H]2C(C)(C)C1"
  classification: "NO"

Moving on to the next molecule.
QUERY: What classification did C#CC1(O)C(COP(=O)(O)OC2CC(n3cc(F)c(=O)[nH]c3=O)OC2CO)OC(n2ccc(N)nc2=O)C1O (centres undefined) end up with in this test?
RESULT: YES
